Assay: Cyclic voltammetry screening (3-electrode beaker cell)
Assay type: physicochemical
Conditions: 5 mM, 0.1 M TBAPF6 in acetonitrile, 100 mV/s; vs Ag|10 mM AgNO3 in acetonitrile (−0.09 V vs Fc|Fc+)
Listing of entries alongside the reported redox potential, E1/2.
API: value field is a number in V; no unit string.

Worked examples follow.
Lab book: redox potential, E1/2 of C(=C\c1ccccc1)/c1ccccc1 [trans-stilbene, reference compound] noted as −2.571

Lab book: redox potential, E1/2 of Cc1cccc2ccccc12 [1-methylnaphthalene, reference compound] noted as −2.909

Let's switch to this compound now.
Lab book: redox potential, E1/2 of c1ccc(-c2ccccc2)cc1 [biphenyl, reference compound] noted as −2.987
